Target: hα2C receptor (Homo sapiens, UniProt P18825)
Construct: expressed in transfected cells; host or cells: CHO cells
Sequence (P18825 whole entry): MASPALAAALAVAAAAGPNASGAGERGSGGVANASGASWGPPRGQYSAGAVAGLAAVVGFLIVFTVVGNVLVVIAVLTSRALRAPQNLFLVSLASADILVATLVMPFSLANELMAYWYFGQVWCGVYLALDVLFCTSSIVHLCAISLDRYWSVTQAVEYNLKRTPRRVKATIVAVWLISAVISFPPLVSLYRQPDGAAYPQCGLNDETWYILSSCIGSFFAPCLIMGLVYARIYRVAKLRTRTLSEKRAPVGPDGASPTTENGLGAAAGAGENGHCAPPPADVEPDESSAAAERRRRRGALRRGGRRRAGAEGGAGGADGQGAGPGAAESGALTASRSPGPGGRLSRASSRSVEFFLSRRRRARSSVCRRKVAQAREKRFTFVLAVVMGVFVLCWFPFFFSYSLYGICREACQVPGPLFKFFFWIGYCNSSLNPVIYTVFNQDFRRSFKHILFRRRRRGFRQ
Assay: Radioligand binding experiment for hα2C receptor ([3H]-raulwolscine, CHO cell membranes)
Settings: [3H]-raulwolscine 1 nM, membranes of CHO cells transfected with human α2C receptor; read-out: pIC50 hα2C (converted)
// values below are reported log10 IC50
A difference of one corresponds to tenfold IC50; all values are log10 with IC50 in nM.

Previously resolved entries follow.
| molecule | measuredParameter | observedValue |
| --- | --- | --- |
| CCN(Cc1cc2c(cc1OC)C1=NOC(CN3CCN(CC(C)=Cc4ccc(F)cc4)CC3)C1CO2)C(C)C (centres unmarked) | log10 IC50 | 0.70 |
| CC(=O)NCc1ccc2c(c1)OCC1C2=NOC1CN1CCN(C/C(C)=C/c2ccccc2)CC1 (centres unmarked) | log10 IC50 | -0.10 |

Challenge: Provide only the value of recorded log10 IC50 for C/C(=C\c1ccccc1)CN1CCN(CC2ON=C3c4ccc(/C=N\O)cc4OCC32)CC1 (centres unmarked)
Response given: 0.20

Challenge: Complete the entry with log10 IC50 for COc1cc2c(cc1-c1ccc(C(C)=O)s1)OCC1C2=NOC1CN1CCN(CC(C)=Cc2ccccc2)CC1 (centres unmarked)
Response given: 1.00

Challenge: Answer with the recorded log10 IC50 for the molecule listed here: COc1cc2c(cc1COc1ccccc1)OCC1C2=NOC1CN1CCN(C/C(C)=C/c2ccccc2)CC1 (centres unmarked)
Response given: 1.30

----------
Biological target: h5-HT transporter (Homo sapiens, UniProt P31645)
Construct: Human platelet membranes (Oceanix Biosciences Corporation, Hanover, Md., USA) were thawed; tissue Oceanix Biosciences Corporation; host or cells: human platelet membranes
Sequence (P31645 whole entry): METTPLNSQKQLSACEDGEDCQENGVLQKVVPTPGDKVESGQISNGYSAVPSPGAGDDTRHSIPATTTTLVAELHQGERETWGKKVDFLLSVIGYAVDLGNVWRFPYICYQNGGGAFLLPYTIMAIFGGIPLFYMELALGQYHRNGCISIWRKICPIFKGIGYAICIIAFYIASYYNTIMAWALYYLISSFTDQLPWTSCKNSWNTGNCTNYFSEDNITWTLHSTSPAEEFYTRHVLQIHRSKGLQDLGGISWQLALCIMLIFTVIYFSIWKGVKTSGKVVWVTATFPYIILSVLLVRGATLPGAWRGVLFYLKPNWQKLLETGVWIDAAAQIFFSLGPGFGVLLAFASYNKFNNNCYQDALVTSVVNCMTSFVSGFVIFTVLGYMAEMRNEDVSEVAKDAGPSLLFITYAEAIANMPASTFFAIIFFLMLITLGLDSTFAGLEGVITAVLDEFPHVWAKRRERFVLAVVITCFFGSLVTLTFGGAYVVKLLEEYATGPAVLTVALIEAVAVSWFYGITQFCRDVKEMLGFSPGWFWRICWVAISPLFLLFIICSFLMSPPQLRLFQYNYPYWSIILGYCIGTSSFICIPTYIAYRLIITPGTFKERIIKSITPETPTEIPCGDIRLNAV
Assay: Radioligand binding experiment for 5-HT transporter ([3H]paroxetine, human platelet membranes)
Details: [3H]paroxetine 0.5 nM, read-out: pIC50 h5HTT (converted)
measuredParameter: IC50 (µM)
Value expressed in µM; do not type the unit.

Below are worked cases with known answers.
| compound | IC50 / µM |
| --- | --- |
| CC(=Cc1ccccc1)CN1CCN(CC2ON=C3c4ccc(CN(C)CCO)cc4OCC32)CC1 (stereo not drawn) | 0.0251 |
| COCc1ccc2c(c1)OCC1C2=NOC1CN1CCN(CC(C)=Cc2ccccc2)CC1 (stereo not drawn) | 0.158 |

Let us examine a further case.
Challenge: Using the record for COc1cc2c(cc1CN1CCC(C)CC1)OCC1C2=NOC1CN1CCN(CC(C)=Cc2ccc(F)cc2)CC1 (stereo not drawn) , state its measured IC50.
Response given: 0.0316

----------
Where a name gives a salt, the structure may show the parent alone.
measuredParameter: melting point

Consider the reported melting point for these compounds:
| compound | melting point |
| --- | --- |
| C/C(=C\c1ccccc1)CN1CCN(CC2ON=C3c4ccc(C#N)cc4OCC32)CC1 (centres unmarked) | 132.2 to 146.7 °C |
| COc1cc2c(cc1-c1ccc(C(C)=O)s1)OCC1C2=NOC1CN1CCN(CC(C)=Cc2ccccc2)CC1 (centres unmarked) | 150.1 to 171.8 °C |
| COc1cc2c(cc1CN1CCOCC1)OCC1C2=NOC1CN1CCN(CC(C)=Cc2ccccc2)CC1 (single isomer, unassigned) [Compound 21] | 56.1 to 68 °C |

Challenge: # return recorded melting point for input CC(=Cc1ccccc1)CN1CCN(CC2ON=C3c4ccc(CN(C)CCO)cc4OCC32)CC1 (centres unmarked) (as salt: HCl)
Response given: 228.6 to 252.1 °C

Challenge: Look up and report measured melting point for this entry: COc1cc2c(cc1CN1CCOCC1)OCC1C2=NOC1CN1CCN(CC(C)=Cc2ccccc2)CC1 (single isomer, unassigned) [Compound 20]
Response given: 66.5 to 89.8 °C

----------
Target: hα2A receptor (Homo sapiens)
Construct: expressed in transfected cells; host or cells: CHO cells
Assay: Radioligand binding experiment for hα2A receptor ([3H]-raulwolscine, CHO cell membranes)
Details: [3H]-raulwolscine 1 nM, membranes of CHO cells transfected with human α2A receptor; read-out: pIC50 hα2A (converted)
Description: The interaction of the compounds according to Formula (I) with hα2-receptors and h5-HT-transporters was assessed in in vitro radioligand binding experiments. […] When equilibrium of binding is reached, the receptor bound radioactivity is separated from the non-bound radioactivity, and the receptor- or transporter-bound activity is counted. The interaction of the test compounds with the receptor is assessed in competition binding experiments. […]
Measured log10 IC50 by item
Field: value | Transform: log10 | Quantity: IC50 | Unit: nM

| compound | observedValue |
| --- | --- |
| CC(=Cc1ccccc1)CN1CCN(CC2ON=C3c4ccc(CN(C)CCO)cc4OCC32)CC1 (stereo not shown) [Compound 9] | 0.10 |
| C/C(=C\c1ccccc1)CN1CCN(CC2ON=C3c4ccc(C#N)cc4OCC32)CC1 (stereo not shown) [Compound 13] | 0.20 |

Would you kindly look at the next entry?
Challenge: Give the reported value of log10 IC50 for this record: COc1cc2c(cc1C)OCC1C2=NOC1CN1CCN(C/C(C)=C/c2ccccc2)CC1 (stereo not shown) [Compound 2]
Response given: 0.30

----------
Reported IC50 values follow for various compounds
Biological target: hα2A receptor (Homo sapiens)
Construct: expressed in transfected cells; host or cells: CHO cells
Assay: Radioligand binding experiment for hα2A receptor ([3H]-raulwolscine, CHO cell membranes)
Conditions: [3H]-raulwolscine 1 nM, membranes of CHO cells transfected with human α2A receptor; read-out: pIC50 hα2A (converted)
Provide only the numeric value, understood in nM.

# example entries with known answers
| compound | measuredParameter | observedValue |
| --- | --- | --- |
| COc1cc2c(cc1COc1ccccc1)OCC1C2=NOC1CN1CCN(C/C(C)=C/c2ccccc2)CC1 (stereo not shown) [Compound 8] | IC50 | 25.1 |
| COc1cc2c(cc1-c1ccccc1)OCC1C2=NOC1CN1CCN(C/C(C)=C/c2ccccc2)CC1 (stereo not shown) [Compound 17] | IC50 | 15.8 |
| COc1cc2c(cc1CN1CCOCC1)OCC1C2=NOC1CN1CCN(CC(C)=Cc2ccccc2)CC1 (single isomer, unassigned) [Compound 20] | IC50 | 398 |
| COc1cc2c(cc1-c1ccc(C(C)=O)s1)OCC1C2=NOC1CN1CCN(CC(C)=Cc2ccccc2)CC1 (stereo not shown) [Compound 18] | IC50 | 15.8 |
| C/C(=C\c1ccccc1)CN1CCN(CC2ON=C3c4ccc(C=O)cc4OCC32)CC1 (stereo not shown) [Compound 19] | IC50 | 5.01 |

Challenge: Let me know recorded IC50 for C/C(=C\c1ccccc1)CN1CCN(CC2ON=C3c4ccc(/C=N\O)cc4OCC32)CC1 (stereo not shown) [Compound 11] , thanks.
Response given: 5.01

Challenge: Read the entry COCc1ccc2c(c1)OCC1C2=NOC1CN1CCN(CC(C)=Cc2ccccc2)CC1 (stereo not shown) [Compound 5] and write its reported IC50.
Response given: 3.16

----------
Target: hα2A receptor (Homo sapiens, UniProt P08913)
Construct: expressed in transfected cells; host or cells: CHO cells
Sequence (P08913 1-465): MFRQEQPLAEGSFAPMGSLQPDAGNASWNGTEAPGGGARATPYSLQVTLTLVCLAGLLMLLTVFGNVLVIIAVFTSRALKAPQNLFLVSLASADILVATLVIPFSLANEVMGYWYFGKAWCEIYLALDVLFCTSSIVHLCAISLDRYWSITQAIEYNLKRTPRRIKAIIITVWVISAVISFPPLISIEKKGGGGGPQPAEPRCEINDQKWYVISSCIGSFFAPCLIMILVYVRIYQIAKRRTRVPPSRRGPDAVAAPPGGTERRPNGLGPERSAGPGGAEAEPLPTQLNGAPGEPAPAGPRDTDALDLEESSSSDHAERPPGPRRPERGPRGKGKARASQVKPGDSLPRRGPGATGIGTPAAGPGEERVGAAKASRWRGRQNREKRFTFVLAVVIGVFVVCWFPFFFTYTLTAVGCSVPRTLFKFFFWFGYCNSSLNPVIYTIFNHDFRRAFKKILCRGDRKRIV
Experiment: Radioligand binding experiment for hα2A receptor ([3H]-raulwolscine, CHO cell membranes)
Settings: [3H]-raulwolscine 1 nM, membranes of CHO cells transfected with human α2A receptor; read-out: pIC50 hα2A (converted)
IC50 values for the compounds below.
Numeric answer plus unit only.

Please review the entries below; each comes with its answer.
| compound | IC50 |
| --- | --- |
| COc1cc2c(cc1CN1CCC(C)CC1)OCC1C2=NOC1CN1CCN(CC(C)=Cc2ccc(F)cc2)CC1 (stereo not drawn) | 6.31 nM |
| CC(=O)NCc1ccc2c(c1)OCC1C2=NOC1CN1CCN(C/C(C)=C/c2ccccc2)CC1 (stereo not drawn) | 5.01 nM |
| CON=Cc1ccc2c(c1)OCC1C2=NOC1CN1CCN(CC(C)=Cc2ccccc2)CC1 (stereo not drawn) | 6.31 nM |
| COc1cc2c(cc1CO)OCC1C2=NOC1CN1CCN(C/C(C)=C/c2ccccc2)CC1 (stereo not drawn) | 3.98 nM |
| CCN(Cc1cc2c(cc1OC)C1=NOC(CN3CCN(CC(C)=Cc4ccc(F)cc4)CC3)C1CO2)C(C)C (stereo not drawn) | 39.8 nM |

Consider the additional compound presented here.
Challenge: Provide only the value of recorded IC50 for COc1cc2c(cc1COC(C)=O)OCC1C2=NOC1CN1CCN(C/C(C)=C/c2ccccc2)CC1 (stereo not drawn)
Response given: 3.98 nM
